- System: RSK4(Kin.Dom.2-C-terminal);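 further: KINOMEscan kinase panel screen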
- Construct: gene RPS6KA6
- EXPERIMENTAL PARAMETERS: concentration: 1 μM, replicates: in singlicate; n = 1
Exercise: for every item that follows, state its recorded %Inh.
Express the result in % but write the number alone.

INPUT: Quick one: %Inh for CC(C)(C)c1ccc(C(=O)Nc2cn3cc(-c4ccccc4)ccc3n2)cc1 ?
OUTPUT: 0

INPUT: Subsequent entry: Cc1ccccc1COc1cc(-n2cnc3cc(Cl)ccc32)sc1C(N)=O [GW813349]
OUTPUT: 42

INPUT: Subsequent entry: Nc1ncnc2c1ncn2-c1cccc(F)c1 [SKF-97560]
OUTPUT: 0

INPUT: Subsequent entry: Fc1cccc(CSc2nnc(-c3ccc4c(c3)CCO4)o2)c1
OUTPUT: 16

INPUT: Subsequent entry: COc1ccc(-c2cc3c(C)nc(N)nc3n([C@H]3CC[C@H](OCCO)CC3)c2=O)cn1
OUTPUT: 23

INPUT: Subsequent entry: COc1cc2ncn(-c3cc(OCc4ccncc4)c(C(N)=O)s3)c2cc1OC [GSK336313]
OUTPUT: 0

INPUT: Subsequent entry: COc1ccc(CNC(=O)NC2CCN(c3ccnc(Nc4ccc(F)cc4)n3)C2)cc1 (centres unmarked) [GSK1379706]
OUTPUT: 20

INPUT: Subsequent entry: COc1cc(Nc2nccc(N3CCC(NC(=O)C(C)c4ccc(Cl)cc4)C3)n2)cc(OC)c1OC (centres unmarked) [GSK1379757]
OUTPUT: 5

INPUT: Subsequent entry: Nc1n[nH]c2ncc(-c3ccccc3)cc12 [SB-517081]
OUTPUT: 36

INPUT: Subsequent entry: CCS(=O)c1ccc(-c2coc3ccc(-c4nnc(C)o4)cc23)cc1 (centres unmarked)
OUTPUT: 6

INPUT: Subsequent entry: Cc1ccc(-c2ccc3c(ccc4sc5c(c43)NC[C@@H](C)N=C5N(C)C)n2)cn1
OUTPUT: 0

INPUT: Subsequent entry: O=C(NCc1cccs1)c1cc(C(=O)c2c(Cl)cccc2Cl)c[nH]1 [GW823670]
OUTPUT: 0

INPUT: Subsequent entry: CN1C(=O)C(Nc2cc(Cl)c(O)c(Cl)c2)=C(c2ccc(Cl)cc2)C1=O [SB-404321]
OUTPUT: 0

INPUT: Subsequent entry: O=C(NCCNc1ccnc(Nc2ccc(F)cc2)n1)Nc1ccc2c(c1)OCO2 [GSK1379882]
OUTPUT: 12

INPUT: Subsequent entry: Cc1nc(N(C)[C@H]2CN(C(=O)CC#N)CC[C@H]2C)c2cc[nH]c2n1
OUTPUT: 4

INPUT: Subsequent entry: CCC(=O)c1c(-c2ccccc2)c2cc(Cl)ccc2c(=O)n1Cc1cc(C(=O)NC2CC2)n(C)n1
OUTPUT: 0

INPUT: Subsequent entry: Nc1nccc2scc(-c3ccc4c(c3)CCN4C(=O)Cc3ccccc3)c12 [GSK2576924]
OUTPUT: 11

INPUT: Subsequent entry: CN1C(=O)C(Nc2ccccc2)=C(c2ccccc2)C1=O [SB-300079]
OUTPUT: 12

INPUT: Subsequent entry: CCS(=O)(=O)c1ccc(OC)c(Nc2ncc(-c3ccc(F)cc3)o2)c1.Cl [GW591947]
OUTPUT: 3

INPUT: Subsequent entry: COc1cc2ncn(-c3cc(OCc4ccncc4Br)c(C(N)=O)s3)c2cc1OC [GW854278]
OUTPUT: 7

INPUT: Subsequent entry: Cc1cccc(-c2cc(-c3c[nH]nc3-c3ccccn3)ccn2)c1 [GW679395]
OUTPUT: 49

INPUT: Subsequent entry: O=C(Nc1n[nH]c2cc(-c3ccccc3F)ccc12)C1CC1 [SB-733371]
OUTPUT: 0

INPUT: Subsequent entry: COc1cc2ncn(-c3cc(OCc4ccc(S(C)(=O)=O)cc4)c(C(N)=O)s3)c2cc1OC [GW869979]
OUTPUT: 6

INPUT: Subsequent entry: FC(F)(F)c1ccc(-c2ncn(CCCN3CCOCC3)c2-c2ccncc2)cc1 [SB-217780]
OUTPUT: 44

INPUT: Subsequent entry: COC(=O)c1c(-c2ccccc2)c2cc(Br)ccc2c(=O)n1Cc1ccc(NC(=O)CCC(=O)O)cc1
OUTPUT: 26

INPUT: Subsequent entry: COc1ccc(-n2cnc3c(N)ncnc32)cc1 [SKF-97236]
OUTPUT: 36

INPUT: Subsequent entry: CCC(=O)c1c(-c2ccccc2)c2cc(Cl)ccc2c(=O)n1Cc1cc(S(C)(=O)=O)n(CC(F)F)n1
OUTPUT: 1

INPUT: Subsequent entry: CCCC(=O)Nc1n[nH]c2ncc(-c3cccc4ccccc34)cc12 [SB-642057]
OUTPUT: 15

INPUT: Subsequent entry: CCCNC(=O)Nc1ccc(Oc2ncnc3ccn(C)c23)cc1
OUTPUT: 0

Values from paper PMC5540273
